# MEASURED_TARGET: Protease (Human immunodeficiency virus 1, UniProt Q9YQ12)
# Sequence (Q9YQ12 whole entry): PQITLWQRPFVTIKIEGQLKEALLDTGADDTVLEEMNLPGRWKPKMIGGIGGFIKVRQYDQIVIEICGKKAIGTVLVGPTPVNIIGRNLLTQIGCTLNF
# ASSAY_TEXT: Inhibition of recombinant wild type HIV1 protease assessed as hydrolysis of fluorogenic substrate
EXPERIMENTAL_READOUT: pIC50
Give bare numbers, as −log10 of the molar value.

Below: 4 compounds and their reported pIC50.
1. CC(C)(C)NC(=O)[C@@H]1C[C@@H]2CCCC[C@@H]2CN1C[C@@H](O)[C@@H](NC(=O)[C@H](CC(N)=O)NC(=O)c1ccc2ccccc2n1)c1cc(-c2ccccc2)cs1
5.82
2. Cc1c(O)cccc1C(=O)N[C@@H](CSc1ccccc1)[C@H](O)CN1C[C@H]2CCCC[C@H]2C[C@H]1C(=O)NC(C)(C)C
8.72
3. Cc1c(O)cccc1C(=O)N[C@@H](c1cc(-c2ccccc2)cs1)[C@H](O)CN1C[C@H]2CCCC[C@H]2C[C@H]1C(=O)NC(C)(C)C
5.40
4. Cc1c(O)cccc1C(=O)N[C@@H](c1cccs1)[C@H](O)CN1C[C@H]2CCCC[C@H]2C[C@H]1C(=O)NC(C)(C)C
4.52

# context switch: different compound, same pIC50
Suppose we examine the compound Cc1c(O)cccc1C(=O)N[C@@H](Cc1cc(-c2ccccc2)cs1)[C@H](O)CN1C[C@H]2CCCC[C@H]2C[C@H]1C(=O)NC(C)(C)C ; what pIC50 value has been reported?
8.22

====

# MEASURED_TARGET: Protease (Human immunodeficiency virus 1)
# ASSAY_TEXT: Inhibition of recombinant wild type HIV1 protease assessed as hydrolysis of fluorogenic substrate
EXPERIMENTAL_READOUT: pIC50
Give bare numbers, as −log10 of the molar value.

Below: 5 compounds and their reported pIC50.
1. CC(C)(C)NC(=O)[C@@H]1C[C@@H]2CCCC[C@@H]2CN1C[C@@H](O)[C@H](Cc1cc2ccccc2s1)NC(=O)C(CC(N)=O)NC(=O)c1ccc2ccccc2n1 (single isomer, unassigned)
9.22
2. CC(C)(C)NC(=O)[C@@H]1C[C@@H]2CCCC[C@@H]2CN1C[C@@H](O)[C@H](Cc1cc(-c2ccccc2)cs1)NC(=O)C(CC(N)=O)NC(=O)c1ccc2ccccc2n1 (single isomer, unassigned)
8.92
3. CC(C)(C)NC(=O)[C@@H]1C[C@@H]2CCCC[C@@H]2CN1C[C@@H](O)[C@@H](NC(=O)[C@H](CC(N)=O)NC(=O)c1ccc2ccccc2n1)c1cccs1
5.30
4. CC(C)(C)NC(=O)[C@@H]1C[C@@H]2CCCC[C@@H]2CN1C[C@@H](O)[C@H](Cc1cccs1)NC(=O)C(CC(N)=O)NC(=O)c1ccc2ccccc2n1 (single isomer, unassigned)
7.68
5. Cc1c(O)cccc1C(=O)N[C@@H](Cc1cccs1)[C@H](O)CN1C[C@H]2CCCC[C@H]2C[C@H]1C(=O)NC(C)(C)C
8.54

Suppose we examine the compound Cc1c(O)cccc1C(=O)N[C@@H](Cc1cc2ccccc2s1)[C@H](O)CN1C[C@H]2CCCC[C@H]2C[C@H]1C(=O)NC(C)(C)C ; what pIC50 value has been reported?
7.82
